System tested: T1, IL-18 receptor (IL-18Rα/IL-18Rβ) on cells (HEK-Blue IL18R reporter cells, NK-92, KG-1) (human, UniProt Q13478 19-541; O95256 20-599)
T1 sequence (looked up) 1: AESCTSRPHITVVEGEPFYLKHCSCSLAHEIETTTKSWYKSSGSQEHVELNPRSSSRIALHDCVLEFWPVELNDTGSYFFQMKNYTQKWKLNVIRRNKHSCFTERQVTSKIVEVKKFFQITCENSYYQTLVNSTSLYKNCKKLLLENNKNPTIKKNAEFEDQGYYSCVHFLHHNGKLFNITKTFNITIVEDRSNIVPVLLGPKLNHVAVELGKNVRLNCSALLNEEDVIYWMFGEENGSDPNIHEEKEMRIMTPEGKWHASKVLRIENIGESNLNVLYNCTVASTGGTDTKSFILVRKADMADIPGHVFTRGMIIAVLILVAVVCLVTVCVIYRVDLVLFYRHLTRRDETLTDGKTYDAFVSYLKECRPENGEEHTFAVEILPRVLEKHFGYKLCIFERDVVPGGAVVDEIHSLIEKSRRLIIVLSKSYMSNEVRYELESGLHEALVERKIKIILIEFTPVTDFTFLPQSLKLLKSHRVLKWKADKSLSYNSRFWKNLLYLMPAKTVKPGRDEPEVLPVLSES
T1 sequence (looked up) 2: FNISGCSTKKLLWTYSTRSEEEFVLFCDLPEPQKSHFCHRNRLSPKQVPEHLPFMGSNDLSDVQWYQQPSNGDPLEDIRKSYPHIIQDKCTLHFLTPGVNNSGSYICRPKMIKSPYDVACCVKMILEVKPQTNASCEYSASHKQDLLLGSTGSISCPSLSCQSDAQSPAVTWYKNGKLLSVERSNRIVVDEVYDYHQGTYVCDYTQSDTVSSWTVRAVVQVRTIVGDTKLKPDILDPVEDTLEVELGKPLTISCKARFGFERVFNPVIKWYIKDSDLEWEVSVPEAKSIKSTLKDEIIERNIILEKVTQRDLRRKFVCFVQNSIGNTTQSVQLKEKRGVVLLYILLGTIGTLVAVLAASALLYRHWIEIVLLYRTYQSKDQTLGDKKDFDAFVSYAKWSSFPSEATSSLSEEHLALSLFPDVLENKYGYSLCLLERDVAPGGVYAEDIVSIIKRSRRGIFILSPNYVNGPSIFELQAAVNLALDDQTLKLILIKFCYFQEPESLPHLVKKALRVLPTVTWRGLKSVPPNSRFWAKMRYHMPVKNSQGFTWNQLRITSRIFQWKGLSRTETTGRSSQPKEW
Assay details: cell-based or functional assay
Quantity: EC50, HEK-Blue IL18R reporter cells (pM)
The reply should contain only the number, in pM.

IL-18 polypeptide of SEQ ID NO: 42 (E06K, K53A, S55A, T63A) (ligand) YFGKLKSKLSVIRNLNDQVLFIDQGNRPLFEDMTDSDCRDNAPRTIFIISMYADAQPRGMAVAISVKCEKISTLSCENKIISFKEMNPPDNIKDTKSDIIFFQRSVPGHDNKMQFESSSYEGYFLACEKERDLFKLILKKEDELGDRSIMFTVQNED ... 0.79
IL-18 polypeptide C148 (ligand, also called F2A, V11I, C38A, K53A, C76A, C127A) YAGKLESKLSIIRNLNDQVLFIDQGNRPLFEDMTDSDARDNAPRTIFIISMYADSQPRGMAVTISVKCEKISTLSAENKIISFKEMNPPDNIKDTKSDIIFFQRSVPGHDNKMQFESSSYEGYFLAAEKERDLFKLILKKEDELGDRSIMFTVQNED ... 7.28

Now for another entry.
Data request: EC50, HEK-Blue IL18R reporter cells for IL-18 polypeptide C167 (ligand, also called V11I, C38A, C76A, S105I, C127A) YFGKLESKLSIIRNLNDQVLFIDQGNRPLFEDMTDSDARDNAPRTIFIISMYKDSQPRGMAVTISVKCEKISTLSAENKIISFKEMNPPDNIKDTKSDIIFFQRIVPGHDNKMQFESSSYEGYFLAAEKERDLFKLILKKEDELGDRSIMFTVQNED ?
Data returned: 5.37

Origin of values: patent US12383631
